# System: CAI (Homo sapiens)
# Sequence (P00915 whole entry): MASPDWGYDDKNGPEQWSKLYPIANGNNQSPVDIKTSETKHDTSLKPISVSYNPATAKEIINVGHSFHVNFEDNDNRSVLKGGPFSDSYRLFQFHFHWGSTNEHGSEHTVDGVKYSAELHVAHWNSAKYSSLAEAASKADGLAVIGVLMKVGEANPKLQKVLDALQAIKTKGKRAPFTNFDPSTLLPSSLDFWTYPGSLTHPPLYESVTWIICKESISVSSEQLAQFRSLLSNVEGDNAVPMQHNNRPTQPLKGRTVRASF
# Experiment Description: fluorescent thermal shift assay (FTSA), CAI
# Format: binding
# Condition Parameters: converted from Kd_intr, 37 °C, independent of pH
Reported Property: ΔGintr CAI

[
  {
    "Compound String": "COC(=O)c1cc(S(N)(=O)=O)c(SC2CCCCC2)cc1Br",
    "System": "CAI (Homo sapiens)",
    "Reported Property": "ΔGintr CAI",
    "Reported Result": "-11.1 kcal/mol"
  },
  {
    "Compound String": "COC(=O)c1cc(S(N)(=O)=O)c(SC2CCCCC2)cc1Cl",
    "System": "CAI (Homo sapiens)",
    "Reported Property": "ΔGintr CAI",
    "Reported Result": "-10.5 kcal/mol"
  },
  {
    "Compound String": "COC(=O)c1cc(S(N)(=O)=O)c(S(=O)(=O)C2CCCCC2)cc1Br",
    "System": "CAI (Homo sapiens)",
    "Reported Property": "ΔGintr CAI",
    "Reported Result": "≥ -9.42 kcal/mol"
  },
  {
    "Compound String": "COC(=O)c1cc(S(N)(=O)=O)c(Cl)cc1S(=O)(=O)c1cccc2ccccc12",
    "System": "CAI (Homo sapiens)",
    "Reported Property": "ΔGintr CAI",
    "Reported Result": "-11.8 kcal/mol"
  },
  {
    "Compound String": "COC(=O)c1cc(S(N)(=O)=O)c(Cl)cc1S(=O)(=O)C1CCCCC1",
    "System": "CAI (Homo sapiens)",
    "Reported Property": "ΔGintr CAI",
    "Reported Result": "-12 kcal/mol"
  }
]

Value source: paper PMC8745178
